Target: hCRTH2 receptor (Homo sapiens)
Construct: expressed in transfected cells
Sequence (Q9Y5Y4 1-395): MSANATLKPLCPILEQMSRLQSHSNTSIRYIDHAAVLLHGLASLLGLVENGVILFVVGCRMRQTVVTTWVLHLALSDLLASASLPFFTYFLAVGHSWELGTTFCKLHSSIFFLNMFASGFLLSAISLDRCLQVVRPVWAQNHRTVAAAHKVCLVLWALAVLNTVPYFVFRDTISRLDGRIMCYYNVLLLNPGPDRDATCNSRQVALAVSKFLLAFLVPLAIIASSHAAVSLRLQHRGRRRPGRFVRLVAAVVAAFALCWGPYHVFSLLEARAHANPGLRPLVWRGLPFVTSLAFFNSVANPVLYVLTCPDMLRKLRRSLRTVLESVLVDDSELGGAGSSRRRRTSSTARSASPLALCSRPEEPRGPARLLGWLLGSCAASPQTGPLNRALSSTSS
Experiment: CRTH2 membranes radioligand binding assay ({3H}-PGD2)
Details: {3H}-PGD2 2.5 nM; membranes of HEK 293 cells expressing recombinant hCRTH2; read-out: hCRTH2 BDG IC50
measuredEndpoint: IC50 (nM)
# unit: nM | format: bare number

# compound, assayTarget, measuredEndpoint, experimentalValue
rows = [
    ("CC1(C(=O)N(Cc2ccccc2)c2ccccc2)CCc2c(c3ccccc3n2CC(=O)O)C1 (racemic) [Example B-04]", "hCRTH2 receptor (Homo sapiens)", "IC50", 3),
    ("CC(C)N(Cc1ccccc1)C(=O)C1CCc2c(c3cc(F)ccc3n2CC(=O)O)C1 (single isomer, unassigned; (+))", "hCRTH2 receptor (Homo sapiens)", "IC50", 3),
    ("CC(C)N(Cc1ccccc1)C(=O)C1CCc2c(c3cc(F)ccc3n2CC(=O)O)C1 (single isomer, unassigned; (-))", "hCRTH2 receptor (Homo sapiens)", "IC50", 67),
    ("CC1(C(=O)N(Cc2ccsc2)c2ccccc2)CCc2c(c3ccccc3n2CC(=O)O)C1 (racemic) [Example B-07]", "hCRTH2 receptor (Homo sapiens)", "IC50", 2),
    ("CN(C(=O)C1(C)CCc2c(c3ccccc3n2CC(=O)O)C1)c1ccccc1 (racemic) [Example B-01]", "hCRTH2 receptor (Homo sapiens)", "IC50", 3),
]

Exercise: What value of IC50 has been recorded for this entry: CCCC1(C(=O)Nc2cccc(F)c2)CCc2c(c3ccccc3n2CC(=O)O)C1 (racemic) [Example B-32]
Solution: 22

Exercise: What value of IC50 has been recorded for this entry: CC1(C(=O)NCc2cc(F)cc(F)c2)CCc2c(c3ccccc3n2CC(=O)O)C1 (racemic) [Example B-68]
Solution: 19

Exercise: What value of IC50 has been recorded for this entry: CN(C(=O)C1(C)CCc2c(c3ccccc3n2CC(=O)O)C1)c1cccc(Cl)c1 (racemic) [Example B-10]
Solution: 1

Exercise: What value of IC50 has been recorded for this entry: O=C(O)Cn1c2c(c3ccccc31)CC(C(=O)N1CCc3ccccc31)CC2 (racemic) [Example A-39]
Solution: 2
